# experimental protocol: Preliminary pharmacokinetics in SD rats
# Assay type: in vivo
# measurement parameters: male, SD, rat, plasma, po, 10 mg/kg, rat, p.o.; read-out: t1/2z, Mean (converted)
measured attribute: half-life (h)

• CC1=CC(=O)[C@@H](O)[C@]2(C)[C@H]3[C@@H](O)[C@H](O)[C@@]4(CO)OC[C@@]35[C@@H](C[C@@H]12)OC(=O)[C@H](O)[C@]54O = 3.35

---

# experimental protocol: Preliminary pharmacokinetics in SD rats
# Format: in vivo
# measurement parameters: male, SD, rat, plasma, iv, 2 mg/kg, i.v. 2 mg/kg, 5 min; read-out: Concentration of BH in rat plasma, Mean
measured attribute: concentration at 5 min (ng/mL)

* CC1=CC(=O)[C@@H](O)[C@]2(C)[C@H]3[C@@H](O)[C@H](O)[C@@]4(CO)OC[C@@]35[C@@H](C[C@@H]12)OC(=O)[C@H](O)[C@]54O [BH, Bruceine H] | 477
